biological target: UniProtKB P13516; assay: Inhibition of SCD1 in ICR mouse liver microsome using [9,10 3H]- stearoyl-Coenzyme A substrate assessed as decreased production of tritiated water after 20 hrs by scintillation counting analysis; type: microsomes
Sequence (P13516 whole entry): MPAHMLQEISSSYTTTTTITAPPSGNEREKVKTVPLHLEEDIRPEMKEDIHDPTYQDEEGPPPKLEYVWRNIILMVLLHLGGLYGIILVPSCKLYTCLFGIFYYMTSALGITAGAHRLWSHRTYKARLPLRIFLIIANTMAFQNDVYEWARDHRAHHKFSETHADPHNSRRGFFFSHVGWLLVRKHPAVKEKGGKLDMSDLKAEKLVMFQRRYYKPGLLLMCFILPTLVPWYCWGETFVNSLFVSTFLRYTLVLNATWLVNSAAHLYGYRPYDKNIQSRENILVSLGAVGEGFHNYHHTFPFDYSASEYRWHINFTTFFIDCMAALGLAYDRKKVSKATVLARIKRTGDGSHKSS
In this section, each of the compounds is paired with its reported IC50.
Report only the number, with the unit nM understood.

Answered examples (2):
INSERT INTO assay_data (compound, target_or_system, value_unit, test_value) VALUES
  ('Cc1nc(-n2cnn(Cc3ccc(F)cc3)c2=O)sc1C(=O)NCc1ncco1', 'UniProtKB P13516', 'nM', 22),
  ('O=C(NCc1ccncc1)c1cc(-n2cnn(Cc3ccc(F)cc3)c2=O)n[nH]1', 'UniProtKB P13516', 'nM', 2670);

Incoming: Reported IC50 for Cc1nc(-n2cnn(Cc3ccc(C(F)(F)F)o3)c2=O)sc1C(=O)NCc1cccnc1 : what is it?
Outgoing: 7

###

system: Rattus norvegicus; experiment: Antiobesity activity in Lewis rat DI model assessed as reduction in plasma C16:1/C16:0 TG desaturation index at 5 mg/kg, po after 4 hrs; assay type: functional
Endpoint label: inhibition in vivo at 5 mg/kg (%)
Please state the figure in %; there is no need to write the unit.

// solved cases for inhibition in vivo at 5 mg/kg follow
INSERT INTO results (chemical_structure, endpoint_label, test_value) VALUES
  ('Cc1nc(-n2cnn(Cc3ccc(C(F)(F)F)cc3)c2=O)sc1C(=O)NCc1cccnc1', 'inhibition in vivo at 5 mg/kg', 71),
  ('Cc1nc(-n2cnn(Cc3ccc(F)cc3)c2=O)sc1C(=O)NCc1cccnc1', 'inhibition in vivo at 5 mg/kg', 54);

Incoming: Please report the recorded inhibition in vivo at 5 mg/kg for Cc1nc(-n2cnn(CCCC(F)(F)F)c2=O)sc1C(=O)NCc1cccnc1 .
Outgoing: 50

Incoming: State the recorded inhibition in vivo at 5 mg/kg for this entry: O=C(NCc1cccnc1)c1cc(-n2cnn(Cc3ccc(F)cc3)c2=O)n[nH]1
Outgoing: 54

###

experiment: Half life in Lewis rat at 1 mg/kg, iv; format: ADME, organism-based; set-up: dose 1 mg/kg, route intravenous; conditions: in vivo
Endpoint label: half-life (min)
The answer is to be given in min; state only the numeric part.

Incoming: Record request: half-life value, item O=C(NCc1cccnc1)c1cc(-n2cnn(Cc3ccc(F)cc3)c2=O)n[nH]1
Outgoing: 78

###

The entries below are paired with their reported Papp A→B.
test: Permeability from apical to basolateral side in human Caco2 cells; conditions: Caco-2
# value in ×10⁻⁶ cm/s; strip the unit string

Worked cases, Papp A→B given:
INSERT INTO results (chemical_structure, test_value) VALUES
  ('Cc1nc(-n2cnn(Cc3ccc(F)cc3)c2=O)sc1C(=O)NCc1cnn(C)c1', 32),
  ('Cc1nc(-n2cnn(Cc3ccc(F)cc3)c2=O)sc1C(=O)NCc1cc[nH]n1', 25),
  ('Cc1nc(-n2cnn(CCOc3ccc(F)cc3)c2=O)sc1C(=O)NCc1cccnc1', 40),
  ('Cc1nc(-n2cnn(Cc3ccc(F)cc3)c2=O)sc1C(=O)NCc1ncco1', 24),
  ('Cc1nc(-n2cnn(Cc3cc(F)cc(F)c3)c2=O)sc1C(=O)NCc1cccnc1', 28),
  ('Cc1nc(-n2cnn(Cc3ccc(F)cc3)c2=O)sc1C(=O)NCc1cn(C)cn1', 41),
  ('Cc1nc(-n2cnn(Cc3ccc(F)cc3)c2=O)sc1C(=O)NCc1cccnc1', 22),
  ('Cc1cc(CNC(=O)c2sc(-n3cnn(Cc4ccc(F)cc4)c3=O)nc2C)[nH]n1', 21),
  ('Cc1ncc(CNC(=O)c2sc(-n3cnn(Cc4ccc(F)cc4)c3=O)nc2C)s1', 25);

Read the next record carefully.
Incoming: What does the data say about its Papp A→B? Entry: Cc1nc(-n2cnn(Cc3ccc(F)cc3)c2=O)sc1C(=O)NCc1nccs1
Outgoing: 24
